# Tested target: UniProt P07688
# Experiment description: Anti-cathepsin activity (cathepsin B, benzyloxycarbonyl-L-lysine-p-nitrophenyl ester substrate)
# Type: biochemical, bovine
# Assay conditions: Table 8 (Example 29); pH 5.1, 30° C., from bovine spleen; read-out: Inhibitory activity toward cathepsin B, IC50
Experimental readout: log10(IC50) (log10 of the value in nM)
# values: log10(IC50), units nM

Look over these answered cases.
CCCC[C@@H](C=O)NC(=O)[C@H](CC(C)C)NC(=O)OCc1ccc(OC)cc1 [Example 7]; 2.18
CCCC[C@@H](C=O)NC(=O)[C@H](CC(C)C)NC(=O)OCc1ccc(Cl)cc1 [Example 6]; 1.85
CCCC[C@@H](C=O)NC(=O)[C@H](CC(C)C)NC(C)=CC(=O)c1ccccc1 [Example 16]; 3.85
CCCC[C@@H](C=O)NC(=O)[C@H](CC(C)C)NC(c1ccccc1)(c1ccccc1)c1ccccc1 [Example 15, N-triphenylmethyl-L-leucyl-L-norleucinal]; 4.51
CCCC[C@@H](C=O)NC(=O)[C@H](CC(C)C)NC(=O)OCc1ccc([N+](=O)[O-])cc1 [Example 8]; 2.00

Q: Query: log10(IC50); subject: CCCC[C@@H](C=O)NC(=O)[C@H](CCCC)NC(=O)OCc1ccccc1 [Example 18]
Ans: 2.04

Q: Next: CCCC[C@@H](C=O)NC(=O)[C@H](CC(C)C)N1C(=O)c2ccccc2C1=O [Example 17, N-phthaloyl-L-leucyl-L-norleucinal]
Ans: 5.00

Q: Entry CCCC[C@@H](C=O)NC(=O)[C@H](CC(C)C)NC(=O)OC12CC3CC(CC(C3)C1)C2 [Example 5] please
Ans: 2.26

----------
# Tested target: cathepsin B (Bos taurus)
# Experiment description: Anti-cathepsin activity (cathepsin B, benzyloxycarbonyl-L-lysine-p-nitrophenyl ester substrate)
# Format: biochemical, bovine
# Assay conditions: Table 8 (Example 29); pH 5.1, 30° C., from bovine spleen; read-out: Inhibitory activity toward cathepsin B, IC50
# Experimental: A mixture of a test compound of the present invention and an acetate buffer solution (25 mM, pH=5.1, with 1 mM EDTA, 3.15 ml) containing a substrate (benzyloxycarbonyl-L-lysine-p-nitrophenyl ester, 0.114 mg) was preincubated at 30° C. for 1 minute. […] Immediately after the start of reaction, the change in absorbance at 326 nm was measured and the inhibitory activity of the test compound was determined by comparison with the control solution.
pIC50: −log10 of the molar value.
Classification field: enter true (1) for pIC50 values not below 6, false (0) for values below it.

Below are worked cases with known answers.
CCCCCCCC(=O)N[C@@H](CC(C)C)C(=O)N[C@H](C=O)CCCC; true (1)
CCCC[C@@H](C=O)NC(=O)[C@H](CC(C)C)NC(=O)OCc1ccccc1Cl; true (1)

Q: Given the entry CCCC[C@@H](C=O)NC(=O)[C@H](CC(C)C)NC(=O)OC(C)(C)C , answer whether its pIC50 meets or surpasses 6.
Ans: true (1)

----------
# Tested target: papain (Carica papaya)
# Sequence (P00784 134-345): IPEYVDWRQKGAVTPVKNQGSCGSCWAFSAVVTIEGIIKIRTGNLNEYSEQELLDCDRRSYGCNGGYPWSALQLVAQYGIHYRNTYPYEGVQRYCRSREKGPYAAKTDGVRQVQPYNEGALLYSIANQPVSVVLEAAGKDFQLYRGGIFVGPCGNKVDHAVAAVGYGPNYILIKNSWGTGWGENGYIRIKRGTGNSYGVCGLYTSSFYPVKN
# Experiment description: Anti-papain activity (casein hydrolysis, Lowry-Folin method)
# Assay type: biochemical
# Protocol: A mixture of a test compound of the present invention, papain (0.015 units) and a citrate buffer solution (20 mM, pH=6.2,1 ml) containing EDTA (0.88 mg) was preincubated at 30° C. for 5 minutes and a substrate solution (1 ml) was added to start the reaction. The substrate was a 1% solution of casein in the citrate buffer. The reaction was performed at 30° C. for 20 minutes. The reaction was quenched by adding 6.5% trichloroacetic acid (3 ml) to the reaction solution. […]
pIC50 values for the compounds below.
As a rule, pIC50 stands for the negative log10 of the concentration, concentration in M.

Q: // lookup pIC50 for CCCC[C@@H](C=O)NC(=O)[C@H](CC(C)C)NP(=S)(c1ccccc1)c1ccccc1 [Example 14]
Ans: 6.77

Q: Repeat for the following compound: CCCC[C@@H](C=O)NC(=O)[C@H](CC(C)C)NC(=O)OC12CC3CC(CC(C3)C1)C2 [Example 5]
Ans: 6.68
